The origin of these recorded values is patent US20240270821A1.

- TARGET DESC: hGLP-1R (Homo sapiens, UniProt P43220)
- Sequence (P43220 24-463): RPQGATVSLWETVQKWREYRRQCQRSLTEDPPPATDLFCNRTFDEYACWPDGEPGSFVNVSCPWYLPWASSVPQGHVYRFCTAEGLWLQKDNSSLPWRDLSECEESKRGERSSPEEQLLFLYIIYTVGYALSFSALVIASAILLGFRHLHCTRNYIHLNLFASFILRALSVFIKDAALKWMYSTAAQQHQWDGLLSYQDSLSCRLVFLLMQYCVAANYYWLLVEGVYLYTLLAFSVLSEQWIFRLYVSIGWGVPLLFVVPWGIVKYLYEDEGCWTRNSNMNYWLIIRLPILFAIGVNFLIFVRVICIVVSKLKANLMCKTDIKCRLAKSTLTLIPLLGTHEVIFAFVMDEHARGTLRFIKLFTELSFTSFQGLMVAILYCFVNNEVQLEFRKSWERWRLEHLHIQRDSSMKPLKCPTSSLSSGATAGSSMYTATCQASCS
- PROTOCOL: cell-based or functional assay
OBSERVED PROPERTY: cAMP Rel EC50, nM (1% HSA) (nM)
Numbers only, in nM.

Solved entries (count: 5):
# BINDER, UNITS LABEL, cAMP Rel EC50, nM (1% HSA)
measured = [
    ("YXQGTXTSDYSILLDKIAQXAFIKYLEEGGPSSGAPPPS (not fully specified; synthetic construct; SITE 2: note = 2-Aminoisobutyric Acid; SITE 6: note = alpha-methyl-2-fluoro-L-phenylalanine; SITE 20: note = 2-Aminoisobutyric Acid; SITE 24: note = Lysine is chemically modified through conjugation of the epsilon-amino group of the Lysine side chain with (2-[2-(2-Amino-ethoxy)-) [Example 430]", "nM", 78.9),
    ("YXQGTFTSDXSXXLDXKAQXQFIEXLIEGGPSSGAPPPSGSEE (non-natural residues; (γGlu)2-C18 diacid on Lys; C-terminal amide; synthetic construct; SITE 2: note = 2-Aminoisobutyric Acid; SITE 10: note = 3-(4-Pyridyl)-L-alanine; SITE 12: note = L-ornithine; SITE 13: note = alpha-methyl-leucine; SITE 16: note = L-ornithine; SITE 17: note = Lysine is chemically modified through conjugation of the epsilon-amino group of the Lys) [Example 972]", "nM", 327),
    ("YXQGTXTSDXSIXLDXKAQXXFIEXLLEGGPSSXEPPPE (synthetic construct; SITE 2: note = 2-Aminoisobutyric Acid; SITE 6: note = alpha-methyl-2-fluoro-L-phenylalanine; SITE 10: note = 3-(4-Pyridyl)-L-alanine; SITE 13: note = alpha-methyl-leucine; SITE 16: note = L-ornithine; SITE 17: note = Lysine is chemically modified through conjugation of the epsil) [Example 373]", "nM", 54.5),
    ("YXQGTFTSDXSXXLDKKAQXAFIEYLIAGGPSSGAPPPSGSE (non-natural residues; lysine acylated with C18 diacid; C-terminal amide; synthetic construct; SITE 2: note = 2-Aminoisobutyric Acid; SITE 10: note = 3-(4-Pyridyl)-L-alanine; SITE 12: note = L-ornithine; SITE 13: note = alpha-methyl-leucine; SITE 17: note = Lysine is chemically modified through conjugation of the epsilon-amino group of the Lysine side chain with (gamma-Gl)) [Example 1009]", "nM", 174),
    ("YXQGTFTSDYSRXLDKKAQXAFIEYLLEGGESSGAPPPSGS (synthetic construct; SITE 2: note = 2-Aminoisobutyric Acid; SITE 13: note = alpha-methyl-leucine; SITE 17: note = Lysine is chemically modified through conjugation of the epsilon-amino group of the Lysine side chain with (2-[2-(2-Amino-ethoxy)-ethoxy]-acetyl)-(gamma-Glu)-CO-(CH2) 16-CO2H; SITE 20: n) [Example 361]", "nM", 376),
]

For each of the binders below, note its cAMP Rel EC50, nM (1% HSA).
1. YXQGTXTSDYXIXLDXKAQXXFIEXLLEGGPSSGEPPPS (synthetic construct; SITE 2: note = 2-Aminoisobutyric Acid; SITE 6: note = alpha-methyl-2-fluoro-L-phenylalanine; SITE 11: note = alpha-methyl-L-serine; SITE 13: note = alpha-methyl-leucine; SITE 16: note = L-ornithine; SITE 17: note = Lysine is chemically modified through conjugation of the epsilon) [Example 368]
2. YXQGTXTSDXXIXLDXKAQXEFIEXLVEGGPSSGEPPPSGSE (synthetic construct; SITE 2: note = 2-Aminoisobutyric Acid; SITE 6: note = alpha-methyl-2-fluoro-L-phenylalanine; SITE 10: note = 3-(4-Pyridyl)-L-alanine; SITE 11: note = alpha-methyl-L-serine; SITE 13: note = alpha-methyl-leucine; SITE 16: note = L-ornithine; SITE 17: note = Lysine is chemically mo) [Example 752]
3. YXQGTFTSDYXIXLDKKAQXAFIEYLIEGGPSSGAPPPS (synthetic construct; SITE 2: note = 2-Aminoisobutyric Acid; SITE 11: note = alpha-methyl-L-serine; SITE 13: note = alpha-methyl-leucine; SITE 17: note = Lysine is chemically modified through conjugation of the epsilon-amino group of the Lysine side chain with (2-[2-(2-Amino-ethoxy)-ethoxy]-acetyl)2-) [Example 382]

1: 37.4; 2: 44; 3: 61.5
